Molecular target: human NTCP (Homo sapiens)
Sequence (Q14973 whole entry): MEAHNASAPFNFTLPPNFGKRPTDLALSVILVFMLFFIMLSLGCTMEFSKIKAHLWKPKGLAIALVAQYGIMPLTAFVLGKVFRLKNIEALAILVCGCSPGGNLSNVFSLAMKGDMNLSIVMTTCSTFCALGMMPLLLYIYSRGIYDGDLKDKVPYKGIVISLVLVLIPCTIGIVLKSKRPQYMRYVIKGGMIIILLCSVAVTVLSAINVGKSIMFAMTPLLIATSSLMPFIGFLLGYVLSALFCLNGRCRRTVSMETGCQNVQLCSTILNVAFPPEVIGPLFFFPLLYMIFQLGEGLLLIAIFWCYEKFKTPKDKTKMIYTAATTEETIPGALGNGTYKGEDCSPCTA
Assay: Screening taurocholate uptake assay (96-well, [14C]taurocholate, 10 µM drug)
Settings: ranking over the functional and the binding screening assay
Counter-ions that a name gives are not always drawn.
Overview of reported Ranking score across a group of compounds:
Reply: number alone, nothing else.

Consider the compound c1ccc2c(c1)OCC(C1=NCCN1)O2 (stereo not drawn) [Idazoxan hydrochloride] and give its recorded Ranking score.
198.728

Write down Ranking score measured for item CC1(C)S[C@@H]2[C@H](NC(=O)[C@H](NC(=O)N3CCNC3=O)c3ccccc3)C(=O)N2[C@H]1C(=O)O [Azlocillin sodium salt]
129.337

Retrieve Ranking score measured for O=C(C1CCCCC1)N1CC(=O)N2CCc3ccccc3C2C1 (stereo not drawn) [Praziquantel] and print it.
262.237

For O=[N+]([O-])O[C@@H]1CO[C@H]2[C@@H]1OC[C@@H]2O [Isosorbide mononitrate] , write its Ranking score.
252.589

Return the recorded Ranking score value; entry: C[C@@H]1O[C@@H](O[C@@H]2C=C3CC[C@@H]4[C@H](CC[C@]5(C)[C@@H](c6ccc(=O)oc6)CC[C@]45O)[C@@]3(C)CC2)[C@H](O)[C@H](O)[C@H]1O [Proscillaridin A]
183.761
